Target: human A3AR (Homo sapiens)
Construct: expressed in transfected cells
Sequence (P0DMS8 1-318): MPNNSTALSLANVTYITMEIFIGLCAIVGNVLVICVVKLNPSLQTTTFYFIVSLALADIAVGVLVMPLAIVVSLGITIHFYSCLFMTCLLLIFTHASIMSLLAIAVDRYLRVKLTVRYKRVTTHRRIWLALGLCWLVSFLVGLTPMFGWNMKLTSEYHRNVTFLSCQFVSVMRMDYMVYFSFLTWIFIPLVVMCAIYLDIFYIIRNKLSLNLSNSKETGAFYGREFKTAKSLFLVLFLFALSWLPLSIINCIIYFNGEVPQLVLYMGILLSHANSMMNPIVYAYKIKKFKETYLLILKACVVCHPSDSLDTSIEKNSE
Experiment: LOPAC library primary screen: single concentration (10 μM) inhibition of 25 nM CA200645 binding, PHERAstar FS
Assay endpoint: % 25 nM CA200645 binding (%)

* O=C(O)/C(=C/c1c(C(=O)O)[nH]c2cc(Cl)cc(Cl)c12)c1ccccc1 | 101.6
* N[C@@H](COP(=O)(O)O)C(=O)O | 93.4
* CC[C@@]1(O)C(=O)OCc2c1cc1n(c2=O)Cc2cc3c(CN(C)C)c(O)ccc3nc2-1.Cl.O [Topotecan hydrochloride hydrate] | 102.0
* CCCN(CCc1ccccc1)C1CCc2c(O)cccc2C1.Cl (racemic) [(±)-PPHT hydrochloride] | 101.7
* Cn1c(=O)[nH]c2ncn(C)c2c1=O | 100.9
* COc1cc2c(CCNC(C)=O)c[nH]c2cc1Cl | 92.8
* Cc1ccc(Cl)c(Nc2ccccc2C(=O)O)c1Cl [Meclofenamic acid sodium] | 93.6
* Cl.c1ccc([C@H]2CN3CCSC3=N2)cc1 [(-)-Tetramisole hydrochloride] | 112.9
* NC(N)=NOCC[C@H](N)C(=O)O | 101.1
